Data provenance is patent US12398141B2.

Biological target: JAK2 (Homo sapiens (Human), UniProt O60674)
Sequence (O60674 whole entry): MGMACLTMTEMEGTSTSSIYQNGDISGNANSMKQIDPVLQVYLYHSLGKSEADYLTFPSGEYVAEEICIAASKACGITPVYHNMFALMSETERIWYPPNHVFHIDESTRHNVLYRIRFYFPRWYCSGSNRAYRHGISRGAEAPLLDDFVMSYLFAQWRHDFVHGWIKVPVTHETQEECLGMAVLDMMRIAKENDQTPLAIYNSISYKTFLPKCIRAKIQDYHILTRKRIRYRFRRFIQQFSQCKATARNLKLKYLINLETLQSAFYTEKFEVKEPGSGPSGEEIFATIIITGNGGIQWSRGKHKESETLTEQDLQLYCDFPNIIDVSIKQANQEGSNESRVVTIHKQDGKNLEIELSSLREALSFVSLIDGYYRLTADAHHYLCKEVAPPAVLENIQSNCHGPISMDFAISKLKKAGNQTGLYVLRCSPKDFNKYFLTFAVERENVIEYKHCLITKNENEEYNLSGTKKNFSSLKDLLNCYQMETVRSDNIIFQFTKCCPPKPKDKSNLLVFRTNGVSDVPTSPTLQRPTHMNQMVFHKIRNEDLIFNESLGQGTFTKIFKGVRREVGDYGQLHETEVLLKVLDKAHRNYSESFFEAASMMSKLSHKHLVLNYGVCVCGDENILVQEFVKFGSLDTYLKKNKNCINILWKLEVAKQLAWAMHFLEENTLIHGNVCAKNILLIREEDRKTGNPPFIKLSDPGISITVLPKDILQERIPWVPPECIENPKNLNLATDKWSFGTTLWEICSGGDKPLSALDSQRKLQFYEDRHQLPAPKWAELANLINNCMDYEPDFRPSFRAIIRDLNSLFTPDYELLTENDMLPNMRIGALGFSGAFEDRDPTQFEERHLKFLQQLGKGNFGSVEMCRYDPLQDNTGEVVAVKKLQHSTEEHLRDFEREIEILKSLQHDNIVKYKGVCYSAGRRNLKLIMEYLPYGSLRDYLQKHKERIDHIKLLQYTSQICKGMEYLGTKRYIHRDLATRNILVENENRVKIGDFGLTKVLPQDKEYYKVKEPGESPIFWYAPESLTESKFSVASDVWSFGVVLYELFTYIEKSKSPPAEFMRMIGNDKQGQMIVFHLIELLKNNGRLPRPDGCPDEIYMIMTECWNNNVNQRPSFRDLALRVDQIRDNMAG
Assay: JAK2 LANCE Ultra kinase assay
Type: biochemical
Details: 12 uM ATP
Lab note: class by IC50, see bin 1 (below 20 nM), bin 2 (20 nM to below 30 nM), bin 3 (30 nM or more)

CC[C@@H]1CN(C(=O)CC(F)(F)F)C[C@@H]1N(C)c1c(C#N)cnc2[nH]ccc12 (relative stereo) = bin 2
CN(C)Cc1nsc(NC(=O)N2C[C@H]3C[C@H](Nc4c(C#N)cnc5[nH]ccc45)C[C@H]3C2)n1 = bin 1
CN(c1c(C#N)cnc2[nH]ccc12)[C@H]1C[C@@H]2CN(S(=O)(=O)c3cccc(F)c3)C[C@@H]2C1 = bin 3
COCc1nsc(NC(=O)N2C[C@H]3C[C@H](N(C)c4c(C#N)cnc5[nH]ccc45)C[C@H]3C2)n1 = bin 1
CCc1nsc(NC(=O)N2C[C@H]3C[C@H](N(C)c4c(C#N)cnc5[nH]ccc45)C[C@H]3C2)n1 = bin 1

Band for the recorded IC50 of C[C@H](O)C(=O)N1C[C@H]2C[C@H](N(C)c3c(C#N)cnc4[nH]ccc34)C[C@H]2C1 ?
bin 3

Next: CN(c1c(C#N)cnc2[nH]ccc12)[C@H]1CC[C@H](CS(=O)(=O)N2CCC(C)(O)C2)CC1 (some centres unmarked)
bin 1

What do you have for N#Cc1cnc2[nH]ccc2c1N1CC2CN(C(=O)NCC(F)(F)F)CC21 (centres unmarked) ?
bin 2

Next up: CN(c1c(C#N)cnc2[nH]ccc12)[C@H]1C[C@@H](NS(=O)(=O)c2cccc(C(F)(F)F)c2)C1
bin 2

Let us now turn to CN(c1c(C#N)cnc2[nH]ccc12)[C@H]1C[C@@H]2CN(C(=O)Nc3nc(C4CC4)no3)C[C@@H]2C1
bin 1

How about this compound: N#Cc1cnc2[nH]ccc2c1N[C@H]1C[C@@H](NS(=O)(=O)CCC(F)(F)F)C1
bin 1

Similarly, CC[C@@H]1CN(C(=O)NC(C)C(C)C)C[C@@H]1Nc1c(C#N)cnc2[nH]ccc12 (relative stereo) ?
bin 1

What do you get for CCC1CN(C(=O)NCC2CC2)CC1Nc1c(C#N)cnc2[nH]ccc12 (centres unmarked) ?
bin 3

Similarly, CN(c1c(C#N)cnc2[nH]ccc12)[C@H]1C[C@@H](NS(=O)(=O)CCC(F)(F)F)C1 [Compound H10] ?
bin 3

---

Parameter AUC(0-t): see the listing below.
Test: Pharmacokinetic test after intragastric administration
Type: in vivo
Details: Sprague-Dawley, mouse, plasma, po; SD mice, 5 mg/kg intragastric; read-out: Area under the curve (AUC0-24, ng/ml · h)
The figure you give is taken to be in ng·h/mL; do not add the unit.

Reported AUC(0-t), compound CN(c1c(C#N)cnc2[nH]ccc12)[C@H]1C[C@@H](NS(=O)(=O)CCC(F)(F)F)C1 [Compound H15] : ____
1520

---

This section presents molecules with their documented IC50 values.
Target: JAK1 (Homo sapiens (Human))
Assay: JAK1 LANCE Ultra kinase assay
Assay type: biochemical
Conditions: 38 uM ATP
State the answer as a number, implicitly in nM.

COCc1nsc(NC(=O)N2C[C@H]3C[C@H](Nc4c(C#N)cnc5[nH]ccc45)C[C@H]3C2)n1 = 0.89
N#Cc1cnc2[nH]ccc2c1N[C@H]1C[C@@H](NS(=O)(=O)c2ccc(C(F)(F)F)cc2)C1 = 5
CN(c1c(C#N)cnc2[nH]ccc12)[C@H]1C[C@@H]2CN(C(=O)Nc3nc(C(C)(C)C)ns3)C[C@@H]2C1 = 9.4

Report IC50 for CN(C)Cc1nsc(NC(=O)N2C[C@H]3C[C@H](Nc4c(C#N)cnc5[nH]ccc45)C[C@H]3C2)n1 please.
2.59

---

Biological target: JAK1 (Homo sapiens (Human))
Assay: JAK1 LANCE Ultra kinase assay
Assay type: biochemical
Details: ratio of IC50 JAK2 to IC50 JAK1
Below, each entry is listed alongside its reported JAK2/JAK1.
Quick one: just the number, no unit, thanks!

Below, 4 molecules whose answers are already recorded.
CC[C@@H]1CN(C(=O)Nc2nc(OC)ns2)C[C@@H]1Nc1c(C#N)cnc2[nH]ccc12 = 6.41
CN(c1c(C#N)cnc2[nH]ccc12)[C@H]1CC[C@H](CS(=O)(=O)N2CCC(CO)C2)CC1 (stereo partly shown) = 9.01
CC[C@@H]1CN(C(=O)CCC(F)(F)F)C[C@@H]1Nc1c(C#N)cnc2[nH]ccc12 (relative stereo) = 11.67
CN(c1c(C#N)cnc2[nH]ccc12)[C@H]1C[C@@H]2CN(C(=O)NCC(F)(F)F)C[C@@H]2C1 = 16.40

Give its JAK2/JAK1 value. Item: CC[C@@H]1CC(NC(=O)Nc2nc(OC)ns2)C[C@@H]1Nc1c(C#N)cnc2[nH]ccc12 (stereo partly shown)
15.31

Similarly, CN(C)c1nsc(NC(=O)N2C[C@H]3C[C@H](N(C)c4c(C#N)cnc5[nH]ccc45)C[C@H]3C2)n1 ?
8.77

Would you mind doing CC[C@@H]1CC(NC(=O)CCC(F)(F)F)C[C@@H]1Nc1c(C#N)cnc2[nH]ccc12 (stereo in doubt) as well?
5.63

---

Documented IC50 across a set of compounds
Target: JAK2 (Homo sapiens (Human))
Test: JAK2 LANCE Ultra kinase assay
Format: biochemical
Conditions: 12 uM ATP
Kindly provide the numeric value in nM only, without the unit symbol.

CN(c1c(C#N)cnc2[nH]ccc12)[C@H]1C[C@@H]2CN(C(=O)Nc3nc(OCC(C)(C)O)ns3)C[C@@H]2C1 = 50

Which IC50 value belongs to CCOc1noc(NC(=O)N2C[C@H]3C[C@H](N(C)c4c(C#N)cnc5[nH]ccc45)C[C@H]3C2)n1 ?
20

Lookup CN(c1c(C#N)cnc2[nH]ccc12)[C@H]1C[C@@H]2CN(C(=O)Nc3nc(C(C)(C)C)ns3)C[C@@H]2C1
46

---

Experiment: Pharmacokinetic test after intragastric administration
Type: in vivo
Details: Sprague-Dawley, mouse, plasma, po; SD mice, 5 mg/kg intragastric; read-out: Plasma concentration (Cmax, ng/ml)
Catalogue of Cmax readings, one per entry.
Please respond with the number in ng/mL and leave the unit unwritten.

N#Cc1cnc2[nH]ccc2c1N1CC2CN(C(=O)NCC(F)(F)F)CC21 (centres unmarked) [Compound H39] = 574
C[C@@H]1CCN(C(=O)CC#N)C[C@@H]1N(C)c1c(C#N)cnc2[nH]ccc12 [Compound H11] = 428
CN(c1c(C#N)cnc2[nH]ccc12)[C@H]1C[C@@H]2CN(C(=O)Nc3nc(OCC(C)(C)N)ns3)C[C@@H]2C1 [Compound H44] = 619

For the compound shown here, COc1nsc(NC(=O)N2C[C@H]3C[C@H](N(C)c4c(C#N)cnc5[nH]ccc45)C[C@H]3C2)n1 [Compound H07] , give the reported Cmax.
578

Also check CN(c1c(C#N)cnc2[nH]ccc12)[C@H]1C[C@@H]2CN(C(=O)NCC(F)(F)F)C[C@@H]2C1 [Compound H22]
213

---

Biological target: JAK1 (Homo sapiens (Human), UniProt P23458)
Sequence (P23458 whole entry): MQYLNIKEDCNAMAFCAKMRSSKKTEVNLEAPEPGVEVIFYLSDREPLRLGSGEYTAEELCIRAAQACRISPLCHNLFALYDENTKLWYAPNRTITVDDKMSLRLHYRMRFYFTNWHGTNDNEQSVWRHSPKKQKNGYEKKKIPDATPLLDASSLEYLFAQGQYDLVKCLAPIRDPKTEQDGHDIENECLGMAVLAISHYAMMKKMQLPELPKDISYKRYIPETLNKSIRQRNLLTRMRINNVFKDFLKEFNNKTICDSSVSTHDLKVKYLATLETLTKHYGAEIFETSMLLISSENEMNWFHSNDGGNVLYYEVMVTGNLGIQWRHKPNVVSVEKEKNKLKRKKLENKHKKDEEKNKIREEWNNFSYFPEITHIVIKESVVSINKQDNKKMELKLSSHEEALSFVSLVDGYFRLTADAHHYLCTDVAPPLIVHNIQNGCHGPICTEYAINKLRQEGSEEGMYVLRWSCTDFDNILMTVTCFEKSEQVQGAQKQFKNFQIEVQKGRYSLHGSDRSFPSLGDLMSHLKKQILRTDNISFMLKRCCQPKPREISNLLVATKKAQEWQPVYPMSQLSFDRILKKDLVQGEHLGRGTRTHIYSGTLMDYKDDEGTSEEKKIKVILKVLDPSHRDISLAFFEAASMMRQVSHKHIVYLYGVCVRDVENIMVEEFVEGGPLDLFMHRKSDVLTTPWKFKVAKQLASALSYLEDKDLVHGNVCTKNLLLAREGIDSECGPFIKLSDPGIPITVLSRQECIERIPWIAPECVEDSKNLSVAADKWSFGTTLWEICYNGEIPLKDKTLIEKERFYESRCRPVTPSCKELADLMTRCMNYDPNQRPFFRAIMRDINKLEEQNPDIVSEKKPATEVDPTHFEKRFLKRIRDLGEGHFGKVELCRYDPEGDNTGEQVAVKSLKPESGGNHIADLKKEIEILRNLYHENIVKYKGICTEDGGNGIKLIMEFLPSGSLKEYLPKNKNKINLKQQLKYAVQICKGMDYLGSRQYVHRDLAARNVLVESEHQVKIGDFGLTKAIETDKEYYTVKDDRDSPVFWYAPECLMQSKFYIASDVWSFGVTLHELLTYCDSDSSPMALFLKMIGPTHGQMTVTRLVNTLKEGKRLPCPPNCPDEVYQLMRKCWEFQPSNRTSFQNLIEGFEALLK
Test: JAK1 LANCE Ultra kinase assay
Assay type: biochemical
Details: ratio of IC50 JAK2 to IC50 JAK1
Rule for this label: satisfied means JAK2/JAK1 is less than 9; not satisfied means JAK2/JAK1 is at least 9.

CC[C@@H]1CN(C(=O)CC(F)(F)F)C[C@@H]1N(C)c1c(C#N)cnc2[nH]ccc12 (relative stereo) = satisfied

Is JAK2/JAK1 of CN(c1c(C#N)cnc2[nH]ccc12)[C@H]1C[C@@H]2CN(S(=O)(=O)c3cccc(F)c3)C[C@@H]2C1 strictly below 9?
not satisfied

Request: N#Cc1cnc2[nH]ccc2c1N[C@H]1C[C@@H](NS(=O)(=O)c2ccc(C(F)(F)F)cc2)C1
satisfied

Would you kindly repeat that for C[C@@H]1CN(C(=O)CC#N)C[C@@H]1N(C)c1c(C#N)cnc2[nH]ccc12 (relative stereo) ?
satisfied

Also COCCOC1CCCN(S(=O)(=O)C[C@H]2CC[C@@H](N(C)c3c(C#N)cnc4[nH]ccc34)C2)C1 (stereo partly shown) ?
satisfied

How about this compound: N#Cc1cnc2[nH]ccc2c1N1CC2CN(C(=O)NCC(F)(F)F)CC21 (stereo not shown)
not satisfied

---

Molecular target: UniProtKB P52333
Sequence (P52333 whole entry): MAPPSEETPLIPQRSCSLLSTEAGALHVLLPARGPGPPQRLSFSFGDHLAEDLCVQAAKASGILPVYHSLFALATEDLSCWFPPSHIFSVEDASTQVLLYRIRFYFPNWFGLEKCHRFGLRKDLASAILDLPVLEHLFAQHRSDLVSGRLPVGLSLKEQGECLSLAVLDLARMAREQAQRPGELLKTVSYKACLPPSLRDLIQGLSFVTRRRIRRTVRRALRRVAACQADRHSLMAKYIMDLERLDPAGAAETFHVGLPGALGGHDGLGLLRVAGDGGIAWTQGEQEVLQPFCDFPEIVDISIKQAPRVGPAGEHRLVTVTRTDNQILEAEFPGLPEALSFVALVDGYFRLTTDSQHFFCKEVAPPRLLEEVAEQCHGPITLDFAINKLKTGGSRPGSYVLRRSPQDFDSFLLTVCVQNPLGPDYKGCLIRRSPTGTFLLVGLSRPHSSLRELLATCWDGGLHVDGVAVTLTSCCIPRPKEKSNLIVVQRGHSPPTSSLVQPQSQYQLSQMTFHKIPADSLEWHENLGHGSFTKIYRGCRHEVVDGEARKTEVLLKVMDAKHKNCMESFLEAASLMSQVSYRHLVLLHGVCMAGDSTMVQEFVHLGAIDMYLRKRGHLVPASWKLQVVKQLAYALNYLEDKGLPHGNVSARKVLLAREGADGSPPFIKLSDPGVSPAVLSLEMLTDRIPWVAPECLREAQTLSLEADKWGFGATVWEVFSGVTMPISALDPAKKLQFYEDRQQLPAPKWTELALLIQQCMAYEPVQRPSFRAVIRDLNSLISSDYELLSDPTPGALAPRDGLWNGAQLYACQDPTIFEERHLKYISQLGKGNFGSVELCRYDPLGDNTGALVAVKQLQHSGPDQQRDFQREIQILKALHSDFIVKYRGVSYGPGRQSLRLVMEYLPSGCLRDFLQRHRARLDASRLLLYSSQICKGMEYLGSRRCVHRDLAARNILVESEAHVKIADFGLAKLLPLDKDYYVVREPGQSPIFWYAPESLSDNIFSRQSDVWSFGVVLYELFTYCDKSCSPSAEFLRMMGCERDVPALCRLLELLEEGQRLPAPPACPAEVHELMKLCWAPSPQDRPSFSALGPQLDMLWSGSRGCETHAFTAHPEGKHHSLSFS
Assay: JAK3 LANCE Ultra kinase assay
Type: biochemical
Settings: 4 uM ATP
Readout name: IC50

CCc1nsc(NC(=O)N2C[C@H]3C[C@H](N(C)c4c(C#N)cnc5[nH]ccc45)C[C@H]3C2)n1 = 63 nM
C[C@@H]1CN(C(=O)NCC(F)(F)F)C[C@@H]1Nc1c(C#N)cnc2[nH]ccc12 = 144 nM
COc1nsc(NC(=O)N2C[C@H]3C[C@H](Nc4c(C#N)cnc5[nH]ccc45)C[C@H]3C2)n1 = 161 nM
CCCS(=O)(=O)N[C@H]1C[C@@H](N(C)c2c(C#N)cnc3[nH]ccc23)C1 = 34.2 nM

Which IC50 value belongs to CN(c1c(C#N)cnc2[nH]ccc12)[C@H]1C[C@@H]2CN(C(=O)Nc3nc(C4CC4)no3)C[C@@H]2C1 ?
27 nM

Try this compound too: CC[C@@H]1CN(C(=O)NCC(F)(F)F)C[C@@H]1Nc1c(C(F)(F)F)cnc2[nH]ccc12 (relative stereo)
258 nM

Try the compound CN(c1c(C#N)cnc2[nH]ccc12)[C@H]1C[C@@H]2CN(C(=O)Nc3nc(C(C)(C)C)ns3)C[C@@H]2C1
223 nM

Let us now turn to CC[C@@H]1CN(CCC#N)C[C@@H]1Nc1c(C#N)cnc2[nH]ccc12 (relative stereo)
112 nM

Further, for CC[C@@H]1CN(C(=O)CCC#N)C[C@@H]1Nc1c(C#N)cnc2[nH]ccc12 (relative stereo) ?
162 nM

Same question for CCC1CN(C(=O)NCC2CC2)CC1Nc1c(C#N)cnc2[nH]ccc12 (stereo not shown) please.
172 nM
